molecular target: T1, Human CD137 ECD (human); experiment: Biacore SPR, vs parent H183/L072
T1 construct: entry includes C-terminal His-tag and biotin acceptor peptide; also called human CD137 extracellular domain; 4-1BB
T1 sequence (chain, as listed by the source limits assumed): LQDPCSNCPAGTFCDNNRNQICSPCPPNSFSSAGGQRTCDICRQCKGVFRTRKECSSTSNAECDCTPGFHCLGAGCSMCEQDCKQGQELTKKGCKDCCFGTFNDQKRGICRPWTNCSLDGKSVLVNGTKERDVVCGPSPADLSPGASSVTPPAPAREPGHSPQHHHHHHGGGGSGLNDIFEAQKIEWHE
The entries below come with measured fold change of affinity values attached.

binder | fold change of affinity, fold
H183/L072 VL T31L (antibody, name in Kabat numbering, V domains shown, Dual-Ig) VH: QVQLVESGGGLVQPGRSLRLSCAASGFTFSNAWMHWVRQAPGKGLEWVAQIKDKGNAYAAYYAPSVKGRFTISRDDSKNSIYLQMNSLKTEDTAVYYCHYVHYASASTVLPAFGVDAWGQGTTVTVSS VL: DIVMTQSPLSLPVTPGEPASISCQASQELVHMNRNLYLHWYQQKPGQAPRLLIYKVSNRFPGVPDRFSGSGSGTDFTLKISRVEAEDVGVYYCAQGTSVPFTFGQGTKLEIK | 0.5
H183/L072 VL S26L (antibody, name in Kabat numbering, V domains shown, Dual-Ig) VH: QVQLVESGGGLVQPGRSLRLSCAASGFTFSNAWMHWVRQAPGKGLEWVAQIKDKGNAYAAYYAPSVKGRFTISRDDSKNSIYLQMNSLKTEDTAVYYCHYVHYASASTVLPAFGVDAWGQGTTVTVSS VL: DIVMTQSPLSLPVTPGEPASISCQALQELVHMNRNTYLHWYQQKPGQAPRLLIYKVSNRFPGVPDRFSGSGSGTDFTLKISRVEAEDVGVYYCAQGTSVPFTFGQGTKLEIK | 0.3
